Experiment: Plasma concentration in spinal nerve ligated rat model at 4 mg/kg, iv followed by infusion of 6 mg/kg/hr after 6 hrs
Type: ADME, organism-based
Measured quantity: concentration at 6 h (nM)

[[record]]
compound_structure_string = "CC(C)c1ccc(CN2CCC(CCCC(=O)c3ncco3)CC2)cc1"
display_unit = "nM"
readout_number = 1200

